Source: patent US10352938B2

Assay: Triplet excited state energy from phosphorescence of Gd complexes at 77K
Format: physicochemical
Settings: solid matrix (methanol/ethanol 1/4), using the Gd complexes
Entries annotated with measured T0-0 (triplet excited state energy)

[
  {
    "COMPOUND": "O=C(NCCN(CCNC(=O)c1cccc(=O)n1O)CCOCCOCCOCCOCCN(CCNC(=O)c1cccc(=O)n1O)CCNC(=O)c1cccc(=O)n1O)c1cccc(=O)n1O.[Eu] [[Eu(H(14O4,2)-1,2HOPO)]^0]",
    "T0-0 (triplet excited state energy)": "22,020 cm^−1"
  },
  {
    "COMPOUND": "O=C(NCCN(CCNC(=O)c1cccc(=O)n1O)CCOCCOCCN(CCNC(=O)c1cccc(=O)n1O)CCNC(=O)c1cccc(=O)n1O)c1cccc(=O)n1O [Eu(H8-2)]",
    "T0-0 (triplet excited state energy)": "22,320 cm^−1"
  }
]

Query: T0-0 (triplet excited state energy); subject: O=C(NCCN(CCNC(=O)c1cccc(=O)n1O)CCOCCOCCOCCN(CCNC(=O)c1cccc(=O)n1O)CCNC(=O)c1cccc(=O)n1O)c1cccc(=O)n1O [Eu(H11-3)]
22,120 cm^−1

What do you have for O=C(NCCN(CCNC(=O)c1cccc(=O)n1O)CCOCCOCCOCCOCCOCCN(CCNC(=O)c1cccc(=O)n1O)CCNC(=O)c1cccc(=O)n1O)c1cccc(=O)n1O.[Eu] [[Eu(H(17O5,2)-1,2HOPO)]^0] ?
21,690 cm^−1

What do you have for O=C(NCCN(CCNC(=O)c1cccc(=O)n1O)CCOCCN(CCNC(=O)c1cccc(=O)n1O)CCNC(=O)c1cccc(=O)n1O)c1cccc(=O)n1O.[Eu] [Eu(H5-1)] ?
22,000 cm^−1
